# Tested on: Escherichia coli
# ASSAY_OVERVIEW: Antimicrobial activity against Escherichia coli after 96h incubation
# Format: functional
Inhibition of 20 mm or higher: 1.0. Under 20 mm: 0.0.

1) CCCCCCCc1cc(C)oc(=O)c1: 0.0
2) C#Cc1cc(C)oc(=O)c1: 0.0
3) CCCCc1cc(C)oc(=O)c1: 1.0
4) Cc1cc(-c2ccc(C=O)cc2)cc(=O)o1: 0.0
5) CCC/C=C/c1cc(C)oc(=O)c1: 0.0
6) CCCC#Cc1cc(C)oc(=O)c1: 1.0
7) Cc1cc(/C=C/c2ccccc2)cc(=O)o1: 0.0
8) Cc1cc(C#CCOC2CCCCO2)cc(=O)o1 (stereo not drawn): 0.0
9) CCCCCCC#Cc1cc(C)oc(=O)c1: 0.0
10) Cc1ccc(-c2cc(C)oc(=O)c2)cc1: 0.0
11) CCCCCC#Cc1cc(C)oc(=O)c1: 0.0

Just for reference, ChEMBL document CHEMBL1135862 is where these values come from.
